Ref: PubChem BioAssay

# assay_overview: inhibitors of E-selectin induction by TNFa, primary screen, imaging, HUVEC, immunofluorescence, MLSMR starter and 10KST1 sets (AID 487);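 note: signal is fraction of cell area covered by stained E-selectin grains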
# cond: HUVEC TNFalpha-induced E-selectin immunofluorescence imaging, at 2 µM; hits give high values
The following ranges of inhibition define the classes used here: class A: < -50%; class B: ≥ -50% and < 20%; class C: ≥ 20%

// query Which of the defined bands does the recorded inhibition of Cn1c(SCC(=O)Nc2ccc3c(c2)OCO3)nnc1-c1cnccn1 sit within?
// result class C

// query What do you have for CCCCOC(=O)c1[nH]c(C)c(C(=O)OC)c1C ?
// result class C

// query What do you have for N#Cc1nc(COc2ccccc2Cl)oc1NCc1ccc(F)cc1 ?
// result class A

// query What do you have for CCCC(=O)N1CCc2[nH]c3ccccc3c2C1 ?
// result class B

// query What do you have for CCOC(=O)C1=Nc2ccccc2C1=[N+]=[N-] ?
// result class B

----------
# assay_overview: inhibitors of poly I:C-induced TLR3 signaling, primary screen, cell-based, poly I:C stimulus, luciferase, 10K MLSCN set (AID 602277)
# cond: HEK293-TLR3 RL24 IRF3 luciferase reporter, at 10 µM, hits give high values
property_measured: inhibition (%)
Your answer should be a plain number; it is taken to be in %.

Worked examples follow.
molecule	inhibition / %
Cc1cc(NC(=O)Cc2cn3ccsc3n2)n(-c2ccccc2)n1	5.15
C=CCn1c(SCn2nnc3ccccc3c2=O)nnc1-c1ccc(Br)cc1	-21.1
CCOc1ccc(Cn2nnc(C(=O)Nc3cc(C)cc(C)c3)c2N)cc1	9.37
CN(c1ccc(OCc2nnc(-c3ccccc3)o2)cc1)S(=O)(=O)c1ccccc1	-5.42
C=C(Cl)COC(=O)[C@H]1C2C=CC(C2)C1C(=O)O (some centres not stated)	2.25
COc1cccc(-c2nc(CSCC(=O)N3CCc4ccccc43)c(C)o2)c1	-34.4
Cc1ccc2cc3cc(C(=O)N4CC(C)CC(C)C4)oc3nc2c1 (configuration not stated)	-64.4
CCOC(=O)N1CCC(n2c(=S)[nH]c3cc(OC)c(OC)cc3c2=O)CC1	23.2
COc1ccccc1-c1nc2n(n1)C(c1cccs1)C(C(=O)Nc1cccnc1)=C(C)N2 (configuration not stated)	-7.18
CCCCN(C)CCCNC(=O)CC1Oc2ccccc2NC1=O (configuration not stated)	36.6

// query Fill in: inhibition of O=C(O)c1cc(-c2ccccc2Cl)n[nH]1 is ___
// result 22.8

// query What do you have for Cc1cc(C)c2c(=O)n(CC(=O)N3CCC(Cc4ccccc4)CC3)sc2n1 ?
// result 46.2

// query What do you have for Cc1c(C#N)c2ccccc2n1CC(=O)N1CCc2ccccc2C1 ?
// result 21.9

----------
Listed here are molecules together with their documented NADPH fluorescence slope.
# target_system: Voltage-gated potassium channel subunit beta-2 (Rattus norvegicus)
# assay_overview: KvBeta positive modulators, primary screen, biochemical, NADPH fluorescence (AID 623);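 note: fluorescence intensity change per second fitted from 20 to 320 s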
# cond: Recombinant KvBeta, NADPH fluorescence decrease slope, 10 min; at 10 µM; hits give low values
Keep the answer to the number alone.

Worked examples follow.
molecule	NADPH fluorescence slope
CCC(=O)Nc1nc2ccccc2n1Cc1ccccc1C	1.4e-06
CCCCN1C(=O)C(O)=C(C(C)=O)C1c1ccc(OC)cc1OC (stereo not drawn)	-4.3e-05
c1ccc(-n2ncc3c(NCC4CCCO4)ncnc32)cc1 (stereo not drawn)	-9.3e-05
Cn1cccc1Cc1nnc(SCC(=O)Nc2ccc(F)cc2F)n1-c1ccc(F)cc1	-7.7e-05
CCOc1cc(C(=O)NCc2nnc(SCC(=O)OC)n2C)cc(OCC)c1OCC	-1.2e-05
CCN1CCc2c(C#N)c(N3CCCCC3)nc(N3CCOCC3)c2C1	-7.6e-05

// query Fill in: NADPH fluorescence slope of Cc1ccc(Cn2ccc(NC(=O)c3cc(-c4cccs4)on3)n2)cc1 is ___
// result -1.8e-05

// query What do you have for COc1ccccc1N1C(=O)c2ccccc2NC1c1ccncc1 (stereo not drawn) ?
// result -0.000349

// query What do you have for CCCCn1c(=O)n(C)c(=O)c2c3c(sc21)COC(C)(C)C3 ?
// result -1.3e-06

// query What do you have for Cc1c(C)n(C(=O)CSc2nccn2C)c2ccccc12 ?
// result -3.5e-05

// query What do you have for CC(C)OC(=O)CCNc1n[nH]c(=O)[nH]c1=O ?
// result -0.000105

// query What do you have for COc1ccc(C(=O)CSc2nnc(C3CCCCC3)n2N)c(OC)c1 ?
// result -2e-05

// query What do you have for CC1(C)Cc2c(c(N3CCOCC3)nc3sc4c(=O)[nH]cnc4c23)CS1 ?
// result -1.9e-05

// query What do you have for COC(=O)CSc1nc2nc(C)cc(C)n2n1 ?
// result -1.8e-05

// query What do you have for COc1ccc(/C(O)=C2/C(=O)C(=O)N(c3nc(C)c(C)s3)C2c2ccco2)cc1 (stereo not drawn) ?
// result -5.8e-05

// query What do you have for Cc1nc(CCNC(=O)c2ccccc2)cs1 ?
// result 9.5e-06

// query What do you have for COc1ccc(/C(O)=C2/C(=O)C(=O)N(CCCN(C)C)C2c2ccccc2)cc1Cl (stereo not drawn) ?
// result -6.6e-05
